These measurements were taken from PubChem BioAssay AID434962.

Attribute: inhibition
- TESTED ON: Insulin-degrading enzyme (Homo sapiens)
- ASSAY NAME: cellular IDE Abeta-cleavage inhibition – fluorescence polarization, HEK cells, FAbetaB substrate, primary screen (AID 434962);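 further: IDE supplied by intact live HEK cells; FP after avidin binding of uncleaved biotin substrate so inhibition keeps polarization high; 0% = DMSO wells and 100% = 60 µM reference IDE inhibitor Ii1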
- CONDITION DESCRIPTION: at 5.59 µM, stronger effect = higher value
Hit rate of the full screen: of about 320,000 compounds, about 1,300 (0.41%) were called active. The full list was thinned out, with actives kept by preference.

- MOLECULE: "Fc1ccc2[nH]c3c(N4CCSCC4)ncnc3c2c1"
  TESTED ON: "Insulin-degrading enzyme (Homo sapiens)"
  inhibition / %: 17.6
- MOLECULE: "COC(=O)c1ccc(/C=C/c2c(-c3ccc(OC)cc3)sc3ccccc23)cc1"
  TESTED ON: "Insulin-degrading enzyme (Homo sapiens)"
  inhibition / %: 1.82
- MOLECULE: "O=C(COC(=O)CCc1ccc(S(=O)(=O)N2CCOCC2)cc1)Nc1cccc(Cl)c1"
  TESTED ON: "Insulin-degrading enzyme (Homo sapiens)"
  inhibition / %: 1.15
- MOLECULE: "COc1ccc(NS(=O)(=O)c2ccc(NC(=S)NC(=O)/C=C/c3ccc(C)cc3)cc2)nn1"
  TESTED ON: "Insulin-degrading enzyme (Homo sapiens)"
  inhibition / %: 24.2
- MOLECULE: "Cc1c(C(=O)Nc2cccc(-c3nnc4n3CCCCC4)c2)oc2ccccc12"
  TESTED ON: "Insulin-degrading enzyme (Homo sapiens)"
  inhibition / %: 17.2
- MOLECULE: "CCc1ccccc1N(CC(=O)N1CCN(c2ccccc2F)CC1)S(C)(=O)=O"
  TESTED ON: "Insulin-degrading enzyme (Homo sapiens)"
  inhibition / %: -4
- MOLECULE: "O=C(COc1ccc(/C=N/NC(=O)c2ccc(O)cc2)cc1)Nc1ccc([N+](=O)[O-])cc1"
  TESTED ON: "Insulin-degrading enzyme (Homo sapiens)"
  inhibition / %: 0.35
- MOLECULE: "Cc1ccc(CC(=O)Nc2ccc(S(=O)(=O)N3CCOCC3)cc2)cc1C"
  TESTED ON: "Insulin-degrading enzyme (Homo sapiens)"
  inhibition / %: 3.81
- MOLECULE: "CCc1ccc(N(CC(=O)NCc2cccnc2)S(=O)(=O)c2ccccc2)cc1"
  TESTED ON: "Insulin-degrading enzyme (Homo sapiens)"
  inhibition / %: 8.22
- MOLECULE: "O=C(Nc1sc2c(c1C(=O)O)CCC2)c1ccccc1F"
  TESTED ON: "Insulin-degrading enzyme (Homo sapiens)"
  inhibition / %: -2.01
- MOLECULE: "CCC(C)N(C(=O)COC(=O)c1nc(Cl)ccc1Cl)C1CCS(=O)(=O)C1 (stereo not drawn)"
  TESTED ON: "Insulin-degrading enzyme (Homo sapiens)"
  inhibition / %: 1.33
- MOLECULE: "O=C(Nc1ccnn1C1CCN(C/C=C/c2ccc(F)cc2)CC1)C1CCCC1"
  TESTED ON: "Insulin-degrading enzyme (Homo sapiens)"
  inhibition / %: -2.53
- MOLECULE: "CC(C)C(=O)Nc1c(O)c2ccccc2[nH]c1=O"
  TESTED ON: "Insulin-degrading enzyme (Homo sapiens)"
  inhibition / %: -1.36
- MOLECULE: "Cc1cc(Cl)ccc1OCCCC(=O)Nc1cccc(-n2cnnn2)c1"
  TESTED ON: "Insulin-degrading enzyme (Homo sapiens)"
  inhibition / %: 6.2
- MOLECULE: "CC(=O)N(C1=C(Cl)C(=O)c2ccccc2C1=O)c1ccc(C(=O)O)cc1"
  TESTED ON: "Insulin-degrading enzyme (Homo sapiens)"
  inhibition / %: 98.9
- MOLECULE: "CCN1CCCC1Cn1cnc2c([nH]c3cc(OC)ccc32)c1=O (stereo not drawn)"
  TESTED ON: "Insulin-degrading enzyme (Homo sapiens)"
  inhibition / %: 6.02
- MOLECULE: "Cc1ccccc1-n1c(C)cc(/C=N/NC(=O)c2ccc(CN3CCOCC3)cc2)c1C"
  TESTED ON: "Insulin-degrading enzyme (Homo sapiens)"
  inhibition / %: -1.59
- MOLECULE: "COc1ccc(N(C(=O)c2cccnc2)S(=O)(=O)c2ccc(OC)c(OC)c2)cc1"
  TESTED ON: "Insulin-degrading enzyme (Homo sapiens)"
  inhibition / %: -4.14
- MOLECULE: "O=C(Cn1[nH]c(=O)c2ccccc2c1=O)Nc1cccc(-c2nnc3n2CCCCC3)c1"
  TESTED ON: "Insulin-degrading enzyme (Homo sapiens)"
  inhibition / %: 7.74
- MOLECULE: "O=C(CCN1C(=O)COc2ccccc21)NCCCN1CCN(c2ccc(F)cc2)CC1"
  TESTED ON: "Insulin-degrading enzyme (Homo sapiens)"
  inhibition / %: -5.39
- MOLECULE: "Cc1c(CN2CC[C@@H](N3CCN(c4ccccn4)CC3)[C@H](O)C2)[nH]c2ccc(F)cc12"
  TESTED ON: "Insulin-degrading enzyme (Homo sapiens)"
  inhibition / %: -1.68
- MOLECULE: "O=[N+]([O-])c1ccc(N(CCO)Cc2ccccc2)c([N+](=O)[O-])c1"
  TESTED ON: "Insulin-degrading enzyme (Homo sapiens)"
  inhibition / %: 0.66
- MOLECULE: "COc1ccc(N=C(C)c2sc3ccccc3c2O)cc1"
  TESTED ON: "Insulin-degrading enzyme (Homo sapiens)"
  inhibition / %: 41.2
- MOLECULE: "CCN1CCCC1CNC(=O)c1cc2cc(OC)c(OC)cc2[nH]1 (stereo not drawn)"
  TESTED ON: "Insulin-degrading enzyme (Homo sapiens)"
  inhibition / %: 1.37
- MOLECULE: "Cc1cc(Cl)ccc1OCCCC(=O)NCc1ccncc1"
  TESTED ON: "Insulin-degrading enzyme (Homo sapiens)"
  inhibition / %: 22.1
- MOLECULE: "COc1cccc(OC)c1C(=O)Nc1sc2c(c1C(N)=O)CCCC2"
  TESTED ON: "Insulin-degrading enzyme (Homo sapiens)"
  inhibition / %: 0.41
- MOLECULE: "COc1cc(NS(=O)(=O)c2ccc(NC(=S)NC(=O)c3ccc(Br)cc3)cc2)ncn1"
  TESTED ON: "Insulin-degrading enzyme (Homo sapiens)"
  inhibition / %: -2.01
- MOLECULE: "CC(C)(C)C(=O)Nc1ccc(C(=O)N/N=C/c2ccccc2OC(=O)c2ccc(Cl)cc2Cl)cc1"
  TESTED ON: "Insulin-degrading enzyme (Homo sapiens)"
  inhibition / %: -0.07
